# credit: paper PMC10786891

MEASURED ON: T1, EsCas13d, nuclease-dead (Eubacterium siraeum, UniProt B0MS50, R295A;H300A;R849A;H854A)
T1 sequence: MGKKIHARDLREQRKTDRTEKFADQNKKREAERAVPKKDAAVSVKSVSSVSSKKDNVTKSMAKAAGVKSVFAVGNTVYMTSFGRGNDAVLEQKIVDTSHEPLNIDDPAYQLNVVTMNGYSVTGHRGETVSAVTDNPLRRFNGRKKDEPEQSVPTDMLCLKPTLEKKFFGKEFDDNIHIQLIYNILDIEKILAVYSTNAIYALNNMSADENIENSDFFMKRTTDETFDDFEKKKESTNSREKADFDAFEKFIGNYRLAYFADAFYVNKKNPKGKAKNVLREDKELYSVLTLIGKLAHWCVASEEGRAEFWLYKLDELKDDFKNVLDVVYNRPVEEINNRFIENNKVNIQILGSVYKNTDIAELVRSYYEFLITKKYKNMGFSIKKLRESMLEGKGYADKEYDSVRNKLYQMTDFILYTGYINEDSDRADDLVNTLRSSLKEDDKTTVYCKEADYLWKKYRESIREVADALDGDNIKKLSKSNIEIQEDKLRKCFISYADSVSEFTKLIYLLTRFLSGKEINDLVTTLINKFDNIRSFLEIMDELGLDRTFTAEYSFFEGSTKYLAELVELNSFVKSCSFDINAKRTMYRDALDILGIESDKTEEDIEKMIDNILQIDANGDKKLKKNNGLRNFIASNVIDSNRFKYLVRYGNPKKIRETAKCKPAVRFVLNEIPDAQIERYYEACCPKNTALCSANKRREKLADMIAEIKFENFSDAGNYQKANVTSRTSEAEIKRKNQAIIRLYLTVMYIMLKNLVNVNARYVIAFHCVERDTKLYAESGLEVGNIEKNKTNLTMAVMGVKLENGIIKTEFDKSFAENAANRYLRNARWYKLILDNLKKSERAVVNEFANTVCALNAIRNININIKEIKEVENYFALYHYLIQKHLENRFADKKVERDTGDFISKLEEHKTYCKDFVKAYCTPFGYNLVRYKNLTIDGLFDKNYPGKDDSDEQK
PROTOCOL DETAILS: crRNA (strand 1, pre-loaded); Mg2+; 40 mM Tris-HCl pH 7.5, 150 mM NaCl, 6 mM MgCl2, 1 mM DTT, 0.1% Tween-20, 0.2 mg/ml BSA; 25 C; 10 min per concentration, then washed
PROTOCOL CONDITIONS: tags: His6-TwinStrep-SUMO cleaved; N-terminal SNAP kept (SNAP-Surface 488); label: 3' end held by stalled T7 RNA polymerase
pKd: −log10 of the molar value.
Classification field: criterion met = pKd at or over 8; criterion not met = pKd under 8.

In plain terms: is recorded pKd at least 8 for target 3 insA 3' of 7,insU 3' of 3 (mixed) RNA 1: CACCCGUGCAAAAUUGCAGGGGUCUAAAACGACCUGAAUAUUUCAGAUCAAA RNA 2: GGGAAUGGAUCCACAUCUACGAAUUCGUUUUUGAUCUGAAAUAUUACAGGUUCUGCAGAUCGGAAGAGCACACGU ? criterion not met

In plain terms: is recorded pKd at least 8 for target 2 MT 5'PFS AUU 3'PFS AAA (mixed) RNA 1: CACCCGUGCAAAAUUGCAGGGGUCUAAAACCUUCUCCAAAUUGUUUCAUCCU RNA 2: GGGAAUGGAUCCACAUCUACGAAUUCAUUAGGAUGAAACAAUUUGGAGAAGAAAAGAUCGGAAGAGCACACGU ? criterion met

In plain terms: is recorded pKd at least 8 for target 1 insA 3' of 19,insU 3' of 18 (mixed) RNA 1: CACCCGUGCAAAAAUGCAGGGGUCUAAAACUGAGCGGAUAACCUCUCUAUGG RNA 2: GGGAAUGGAUCCACAUCUACGAAUUCGUACCAUAAUGAGAGGUUAUCCGCUCACCGAGAUCGGAAGAGCACACGU ? criterion not met

In plain terms: is recorded pKd at least 8 for target 2 MT 5'PFS CAU 3'PFS AUG (mixed) RNA 1: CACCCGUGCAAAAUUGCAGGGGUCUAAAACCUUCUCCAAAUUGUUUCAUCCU RNA 2: GGGAAUGGAUCCACAUCUACGAAUUCCAUAGGAUGAAACAAUUUGGAGAAGAUGAGAUCGGAAGAGCACACGU ? criterion met

In plain terms: is recorded pKd at least 8 for target 3 insA 3' of 2,insA 3' of 1 (mixed) RNA 1: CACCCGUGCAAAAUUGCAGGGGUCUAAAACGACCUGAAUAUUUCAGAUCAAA RNA 2: GGGAAUGGAUCCACAUCUACGAAUUCGUUUUUGAUCUGAAAUAUUCAGGUACAUGCAGAUCGGAAGAGCACACGU ? criterion not met

In plain terms: is recorded pKd at least 8 for target 3 U7A,U8C (mixed) RNA 1: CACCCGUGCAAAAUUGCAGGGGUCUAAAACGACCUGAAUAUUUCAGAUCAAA RNA 2: GGGAAUGGAUCCACAUCUACGAAUUCGUUUUUGAUCUGAAAUACACAGGUCUGCAGAUCGGAAGAGCACACGU ? criterion not met

In plain terms: is recorded pKd at least 8 for target 2 MT 5'PFS UUA 3'PFS CUA (mixed) RNA 1: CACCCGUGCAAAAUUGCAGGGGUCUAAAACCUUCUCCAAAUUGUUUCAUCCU RNA 2: GGGAAUGGAUCCACAUCUACGAAUUCUUAAGGAUGAAACAAUUUGGAGAAGCUAAGAUCGGAAGAGCACACGU ? criterion not met

In plain terms: is recorded pKd at least 8 for target 1 MT 5'PFS GAA 3'PFS UAC (mixed) RNA 1: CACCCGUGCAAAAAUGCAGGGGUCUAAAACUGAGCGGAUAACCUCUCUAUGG RNA 2: GGGAAUGGAUCCACAUCUACGAAUUCGAACCAUAGAGAGGUUAUCCGCUCAUACAGAUCGGAAGAGCACACGU ? criterion not met
